System: Mycobacterium tuberculosis
Assay: Antimycobacterial activity against multidrug-resistant Mycobacterium tuberculosis 8666/2010 after 14 days by micromethod
Format: functional
Details: 8666/2010, 336 h
Catalogue of molecules with associated MIC
Answer with a number only, understood to be in µM.

Please review the following examples before continuing.
>>> df
                            chemical_string                 test_target  reported_measurement
0  CCCCCCn1nnnc1[Se]Cc1cc([N+](=O)[O-])cc([N+](=O)[O-])c1  Mycobacterium tuberculosis                  0.25
1  O=[N+]([O-])c1cc(CSc2nnnn2C2CCCCC2)cc([N+](=O)[O-])c1  Mycobacterium tuberculosis                   0.5
2  COc1ccc(-n2nnnc2[Se]Cc2cc([N+](=O)[O-])cc([N+](=O)[O-])c2)cc1  Mycobacterium tuberculosis                   0.5

We next turn to a different molecule, shown below.
// query Requested field: MIC. Item: O=[N+]([O-])c1cc(C[Se]c2nnnn2C2CCCCC2)cc([N+](=O)[O-])c1
// result 0.5
